Data provenance: patent US7201899B2

Test system: PK-1 and PAE's cells
Experiment: Antibody staining and FACS analysis of porcine cells
Assay type: binding
Conditions: anti-GAL antibodies pre-incubated with sugar (0.1 M) at 37° C. for 30 min
Experimental: C. […] The specificity of the anti-GAL antibody binding to porcine cells was determined by examining the ability of sugars of various structures to inhibit antibody binding. […]
MEASURED_QUANTITY: inhibition of anti-GAL IgM and/or IgG staining of porcine cells by sugar

[
  {
    "COMPOUND": "OC[C@H]1O[C@H](OC[C@H]2O[C@H](OC[C@H]3O[C@H](O[C@]4(CO)O[C@H](CO)[C@@H](O)[C@@H]4O)[C@H](O)[C@@H](O)[C@@H]3O)[C@H](O)[C@@H](O)[C@H]2O)[C@H](O)[C@@H](O)[C@H]1O [Stachyose, α-D-gal-[1->6]-α-D-Glc-[1->2]-β-D-Fru]",
    "REPORTED_RESULT": "inhibited"
  },
  {
    "COMPOUND": "O=C[C@H](O)[C@@H](O)[C@@H](O)[C@H](O)CO [Galactose, D(+)galactose]",
    "REPORTED_RESULT": "inhibited"
  },
  {
    "COMPOUND": "O=C[C@H](O)[C@@H](O)[C@H](O)[C@H](O)CO[C@H]1O[C@H](CO)[C@H](O)[C@H](O)[C@H]1O [Melibiose, 6-O-α-D-galactopyranosyl-D-glucose]",
    "REPORTED_RESULT": "inhibited"
  }
]

###

Test system: pig RBC
Assay: Hemagglutination of pig RBC by human serum: sugar inhibition
Type: cell-based
Details: pig RBC agglutination by human serum
Procedure: The methods used to investigate the hemagglutination of pig red blood cells (RBC's) by human serum was adapted from the methods described by Galili, J. Exp. Med. 160: 1579–81 (1984) and Severson, Immunol. 96: 785–789 (1966). A. Media/Solution Preparation • 1. Human Serum Albumin (HSA) (CSL, Melbourne, Australia) (5 mg/ml) was dissolved in PBS, filter sterilized, and stored at 4° C. • 2. […]
MEASURED_QUANTITY: concentration range inhibiting agglutination (in words)

[
  {
    "MOLECULE": "OC[C@H]1O[C@H](OC[C@H]2O[C@H](OC[C@H]3O[C@H](O[C@]4(CO)O[C@H](CO)[C@@H](O)[C@@H]4O)[C@H](O)[C@@H](O)[C@@H]3O)[C@H](O)[C@@H](O)[C@H]2O)[C@H](O)[C@@H](O)[C@H]1O [Stachyose, α-D-gal-[1->6]-α-D-Glc-[1->2]-β-D-Fru]",
    "REPORTED_RESULT": "μM to mM range"
  },
  {
    "MOLECULE": "O=C[C@H](O)[C@@H](O)[C@H](O)[C@H](O)CO[C@H]1O[C@H](CO)[C@H](O)[C@H](O)[C@H]1O [Melibiose, 6-O-α-D-galactopyranosyl-D-glucose]",
    "REPORTED_RESULT": "μM to mM range"
  },
  {
    "MOLECULE": "O=C[C@H](O)[C@@H](O)[C@@H](O)[C@H](O)CO [Galactose, D(+)galactose]",
    "REPORTED_RESULT": "μM to mM range"
  }
]
